- System: HOP-92 NSCLC
- Test: NCI tumour cell line growth inhibition, 48 h; in the data active = GI50 below about 0.43 µM; inactive = the rest
Could you please pick one outcome from this set? 1 = active, 0 = inactive

# example entries with known answers
Compound	Subject Of Test	Discrete Label
COc1ccc(C(=O)/C=C/c2ccc(OCc3ccccc3)c(OC)c2)cc1OC	HOP-92 NSCLC	0
CC1(C)N=C(N)N=C(N)N1c1ccc(OCCCCNC(=O)Nc2cccc(S(=O)(=O)F)c2)c(Cl)c1	HOP-92 NSCLC	0
Nc1ccn([C@@H]2S[C@H](CO)[C@@H](O)[C@@H]2F)c(=O)n1	HOP-92 NSCLC	1
CN(C)c1ccc2c(c1)OC(N)=C(C#N)C2c1ccc2c(c1)CCCN2C (stereo not given)	HOP-92 NSCLC	0

GET /call?item= "CCN(CC)C(=O)CCCCCn1c2ccccc2c2c3c(c4c5ccccc5[nH]c4c21)C(=O)N(O)C3=O" returns the recorded outcome of this test.
0

###

- Tested on: SN12C renal
- Test: NCI tumour cell line growth inhibition, 48 h
Endpoint Name: TGI

The following molecules have reported results that may help.
Molecule	Result
CC(=O)OC1CC[C@@]2(C)C(=CC[C@@H]3[C@@H]2CC[C@]2(C)C(OC(C)=O)[C@H](n4ccnc4)C[C@@H]32)C1 (stereo partly specified)	> 100 µM
CC(C)CCCC(C)[C@H]1CCC2[C@@H]3CCC4Cc5nc6c(nc5C[C@]4(C)C3CC[C@@]21C)CC1CC[C@@H]2C(CC[C@@]3(C)C2CC[C@@H]3O)[C@@]1(C)C6 (stereo partly specified)	> 100 µM
C1CCN2CC3CONC3C2C1 (stereo unspecified)	> 100 µM
COC(=O)c1ccc2c(c1)C(=O)c1c-2n(CCCCl)c(=O)c2cc(OC)c(OC)cc12	> 100 µM
O=C1c2ccccc2/C=C\C(c2ccccc2)=N/N1c1ccccc1Cl	> 100 µM

Hey, quick one: what's TGI for each of these?
1. COc1cc(OC)c(/C=C/C(=O)c2c(N)cc(OC)cc2OC)c(OC)c1
2. Cc1ccccc1CNc1c2ccccc2nc2ccccc12
3. CC/C(=C(/c1ccc(/C=C/C(=O)O)cc1)c1ccc2[nH]ncc2c1)c1ccc(F)cc1Cl
4. O=C1Nc2ccccc2C1S(=O)(=O)c1ccccc1 (stereo unspecified)

> 100 µM
8.97 µM
44.6 µM
> 100 µM

###

- System: UO-31 renal
- Test: NCI tumour cell line growth inhibition, 48 h
Endpoint Name: GI50

The following compounds have reported results that may help.
Compound	GI50
CN(C)CCS(=O)(=O)Nc1cc(-c2ccc3ncnc(Nc4ccc(F)c(Cl)c4)c3c2)cnc1Cl	0.259 µM
CC1CCC2c3c([nH]c4ccccc34)C3C(=O)N(c4ccccc4)C(=O)C3C2C1 (stereo not drawn)	117 µM

Consider the record given below.
Identify the measured GI50 of "COc1ccc(C(=O)/C=C/c2ccc(OCc3ccccc3)c(OC)c2)cc1OC" for UO-31 renal.
4.16 µM

###

- Tested on: SK-MEL-5 melanoma
- Test: NCI tumour cell line growth inhibition, 48 h
Would you kindly list TGI for each of these compounds?
Answers are plain numbers, in µM.

Answered cases to consult:
Compound	Unit Abbrev	Result Number
N#Cc1c(N)nc2n[nH]c(N)c2c1-c1ccccc1	µM	26.7
CC1=NN(c2nc(N)nc(/C=C\c3ccccc3)n2)C(C)(C)C1	µM	32.3
CO/C(=N\N=C(/c1ccccc1)C(F)(F)F)c1ccncc1	µM	57
O=C1c2ccoc2C(=O)c2oc(=O)ccc21	µM	3.15
O=C1CC(=O)NC(=NN2C(=O)/C(=C/c3ccc(Cl)cc3)N=C2c2ccccc2)N1	µM	32

For each of the items listed, what is its TGI?
1. O=C1C2C(C(=O)N1CC[Se][Se]CCN1C(=O)C3C(C1=O)[C@H]1C=C[C@@H]3C1)[C@H]1C=C[C@@H]2C1 (some centres not stated)
2. CCN(CCCl)c1cc(CN(C)C)cc(NC(=O)c2cc(C(=O)Nc3cc(CN(C)C)cc(N(CC)CCCl)c3)n(C)n2)c1
3. O=C(c1ccccc1)c1ccc2nc3n(c2c1)C(c1c(Cl)cccc1Cl)SC3 (configuration not stated)
4. Cn1c(SCc2c[nH]c3ccccc23)nnc1-c1ccc(Cl)cc1Cl
5. CCOc1cc2c(cc1O)CC[C@@H]1[C@@H]2CC[C@]2(C)[C@@H](O)CC[C@@H]12
6. Cn1cc(NC(=O)c2cc(NC(=O)CCCCCCCC(=O)Nc3cc(C(=O)Nc4cc(C(=O)NCCC(=N)N)n(C)c4)n(C)c3)cn2C)cc1C(=O)NCCC(=N)N
7. CCN(CC)Cc1ccc(Nc2c3ccccc3nc3ccccc23)cc1

1. 3.7
2. 2.28
3. 14.6
4. 27.5
5. 2.48
6. 22.3
7. 3.15

Below is a list of compounds. For each, state its recorded TGI.
1. CCN(CC)CCCNc1c2ccc(Cl)cc2nc2ccc(OC)cc12
2. CC/C(=C(/c1ccc(/C=C/C(=O)O)cc1)c1ccc2[nH]ncc2c1)c1ccc(F)cc1Cl
3. O=[N+]([O-])c1ccc(/C=C\c2ccc3c(c2)OCO3)c([N+](=O)[O-])c1
4. NC(N)=N/N=C\c1c(-c2ccccc2)nc2sccn12

3.02
21.4
38.9
29.2

Record TGI per entry; entries follow.
1. Nc1c(-c2nc3ccccc3s2)[n+]([O-])c2ccccc2[n+]1[O-]
2. CCOC(=O)C1=C(C)N(CC(C)C)C2(O)C(OC)CC(=O)C3C(=O)N(c4ccccc4)C(=O)C132 (configuration not stated)
3. CC(=O)N1c2ccccc2[C@H]2CCc3c([nH]c4ccccc34)[C@H]21

40.4
43.9
26.2
